Target: Gal(a1-6)Glc
Assay: glycan array binding signal (z-score within array); higher = stronger binding
Settings: glycan notation: IUPAC condensed, linker removed
This is one part of a sample in which the strongest signals are shown more often than they occur.
endpoint-name: glycan array binding signal (z-score)

Solved entries:
Req: Output glycan array binding signal (z-score) of Epa22 (Candida glabrata) (protein) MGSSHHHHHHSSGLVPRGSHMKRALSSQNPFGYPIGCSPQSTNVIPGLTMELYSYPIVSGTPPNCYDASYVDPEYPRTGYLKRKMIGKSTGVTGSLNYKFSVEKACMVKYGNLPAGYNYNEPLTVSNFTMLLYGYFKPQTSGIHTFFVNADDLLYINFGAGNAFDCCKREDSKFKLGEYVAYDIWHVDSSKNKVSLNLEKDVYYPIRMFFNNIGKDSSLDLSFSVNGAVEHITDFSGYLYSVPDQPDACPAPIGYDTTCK
Resp: 6.63

Req: Output glycan array binding signal (z-score) of Epa23 (Candida glabrata) (protein) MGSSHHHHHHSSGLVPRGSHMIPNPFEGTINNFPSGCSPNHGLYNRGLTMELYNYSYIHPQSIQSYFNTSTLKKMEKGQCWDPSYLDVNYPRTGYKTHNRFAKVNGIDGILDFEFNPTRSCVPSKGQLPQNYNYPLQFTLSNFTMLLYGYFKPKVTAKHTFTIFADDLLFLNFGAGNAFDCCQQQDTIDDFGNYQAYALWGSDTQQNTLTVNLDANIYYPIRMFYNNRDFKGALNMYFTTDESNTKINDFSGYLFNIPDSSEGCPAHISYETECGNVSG
Resp: -0.007

Req: Output glycan array binding signal (z-score) of Clone646PsrP (Streptococcus pneumoniae) (protein) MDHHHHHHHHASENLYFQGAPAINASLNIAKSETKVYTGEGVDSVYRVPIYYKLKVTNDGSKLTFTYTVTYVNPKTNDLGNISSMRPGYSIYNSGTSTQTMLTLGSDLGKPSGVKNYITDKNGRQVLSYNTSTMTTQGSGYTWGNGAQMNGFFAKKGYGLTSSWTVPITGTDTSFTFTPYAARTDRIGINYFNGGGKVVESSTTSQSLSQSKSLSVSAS
Resp: 0.015

Let's switch to this binder now.
Req: Output glycan array binding signal (z-score) of Gz-CVNH (Gibberella zeae) (protein) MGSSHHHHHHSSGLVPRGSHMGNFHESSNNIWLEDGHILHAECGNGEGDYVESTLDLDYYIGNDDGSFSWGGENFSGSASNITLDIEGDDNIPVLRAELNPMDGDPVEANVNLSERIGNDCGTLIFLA
Resp: -0.128

src = the supplement of paper PMC8728848
